# mass density per entry
# Assay Conditions: 293.15 K; 94.9 kPa; Liquid; Vibrating tube method
Property Measured: mass density (kg/m3)

Compound | Test Result
Cc1ccccc1 | 866.68
C1COCCN1 [tetrahydro-1,4-oxazine] | 999.54
CCCCCCCCCCO | 830.01
CCCCCCCCO | 825.57

###

# Assay Overview: refractive index (Na D-line) (dimensionless)
# Assay Conditions: 293.15 K; 94.9 kPa; Liquid; (Schmidt +Haensch) refractometer (Model DSR lambda)
± gives the expanded uncertainty stated by the source.
Property Measured: refractive index

Molecule | Test Result
CCCCCCCCCCO | 1.43711 ± 0.0024
C1COCCN1 [tetrahydro-1,4-oxazine] | 1.45453 ± 0.0024
CCCCCCCCO | 1.4295 ± 0.0024
Cc1ccccc1 | 1.49666 ± 0.0024

Just for reference, the NIST ThermoML archive (doi:10.1016/j.tca.2016.12.010) is where these values come from.
